target: α-Glucosidase type I (EC 3.2.1.20) (Saccharomyces cerevisiae, UniProt P53341); construct: purchased Sigma-Aldrich Chemical Co. (St. Louis, MO); assay: biochemical; settings: isolated compounds; mean ± SD, n = 3; read-out: IC50 α-glucosidase
Sequence (P53341 whole entry): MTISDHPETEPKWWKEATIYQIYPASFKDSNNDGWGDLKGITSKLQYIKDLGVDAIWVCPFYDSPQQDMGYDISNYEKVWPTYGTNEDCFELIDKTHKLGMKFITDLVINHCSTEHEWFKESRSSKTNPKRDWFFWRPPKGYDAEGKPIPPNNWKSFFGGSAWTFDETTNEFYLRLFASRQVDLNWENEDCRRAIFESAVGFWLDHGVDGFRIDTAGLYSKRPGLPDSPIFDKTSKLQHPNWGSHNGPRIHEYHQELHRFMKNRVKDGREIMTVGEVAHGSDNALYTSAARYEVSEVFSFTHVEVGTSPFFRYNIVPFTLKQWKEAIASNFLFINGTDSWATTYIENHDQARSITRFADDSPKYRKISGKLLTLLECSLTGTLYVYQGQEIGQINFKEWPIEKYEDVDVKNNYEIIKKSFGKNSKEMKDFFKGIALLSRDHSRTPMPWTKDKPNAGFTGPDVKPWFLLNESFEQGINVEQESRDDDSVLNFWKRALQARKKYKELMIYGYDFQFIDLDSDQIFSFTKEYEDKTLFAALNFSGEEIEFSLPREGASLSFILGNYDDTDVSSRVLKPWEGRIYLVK
reported_property: pIC50
Note on units: pIC50 is unitless, being -log10 of a concentration expressed in mol/L.

{"compound": "CC(C)=CCc1c(O)ccc(C(=O)/C=C/c2ccc(O)cc2)c1O", "pIC50": 4.17}
{"compound": "CC(C)=CCc1c(O)ccc(C(=O)/C=C/c2ccc(O)cc2O)c1O", "pIC50": 4.30}

// moving on: another record for pIC50
Dear colleague, I am looking for the recorded pIC50 of the following compound: O=c1c(O[C@@H]2O[C@H](CO)[C@@H](O)[C@H](O)[C@H]2O)c(-c2ccc(O)c(O)c2)oc2cc(O[C@@H]3O[C@H](CO)[C@@H](O)[C@H](O)[C@H]3O)cc(O)c12 [Compound 6, quercetin 3,7-di-O-β-D-glucopyranoside]
3.22

====

target: α-Glucosidase type I (EC 3.2.1.20) (Saccharomyces cerevisiae); construct: purchased Sigma-Aldrich Chemical Co. (St. Louis, MO); assay: biochemical
reported_property: IC50 (µM)
Please reply with the bare figure in µM and do not write the unit itself.

Would you please look over these solved cases?
{"compound": "O=C(O)Cc1c(O)cc(O)cc1OC(=O)c1ccc(O)c(O)c1", "target_system": "α-Glucosidase type I (EC 3.2.1.20) (Saccharomyces cerevisiae)", "IC50 [µM]": 116}
{"compound": "O=C1C[C@@H](c2ccc(O[C@@H]3O[C@H](CO)[C@@H](O)[C@H](O)[C@H]3O)c(O)c2)Oc2cc(O)cc(O)c21", "target_system": "α-Glucosidase type I (EC 3.2.1.20) (Saccharomyces cerevisiae)", "IC50 [µM]": 409}

Consider the additional compound presented here.
May I ask what IC50 has been recorded for C=C(C)C1Cc2c(ccc(C(=O)/C=C/c3ccc(O)cc3)c2O)O1 (stereo not drawn) ?
225

====

target: α-Glucosidase type I (EC 3.2.1.20) (Saccharomyces cerevisiae, UniProt P53341); construct: purchased Sigma-Aldrich Chemical Co. (St. Louis, MO); assay: biochemical
reported_property: pIC50
As a rule, pIC50 stands for the negative log10 of the concentration, concentration in M.

Solved entries:
{"molecule": "COC(=O)Cc1c(O)cc(O)cc1OC(=O)c1ccc(O)c(O)c1", "target_system": "α-Glucosidase type I (EC 3.2.1.20) (Saccharomyces cerevisiae, UniProt P53341)", "experimental_value": 4.50}
{"molecule": "C[C@@H]1O[C@@H](OC[C@H]2O[C@@H](Oc3c(-c4ccc(O)cc4)oc4cc(O)cc(O)c4c3=O)[C@H](O)[C@@H](O)[C@@H]2O)[C@H](O)[C@H](O)[C@H]1O [Compound 8, kaempferol 3-O-β-D-rutinoside]", "target_system": "α-Glucosidase type I (EC 3.2.1.20) (Saccharomyces cerevisiae, UniProt P53341)", "experimental_value": 3.75}

What does the record list as pIC50 for O=c1c(O)c(-c2ccc(O)c(O)c2)oc2cc(O[C@@H]3O[C@H](CO)[C@@H](O)[C@H](O)[C@H]3O)cc(O)c12 [Compound 5, quercetin 7-O-β-D-glucopyranoside] ?
3.43
